test: in vivo; details: NF1 minipig, sc, 8.25 mg/kg, t1/2
result type: half-life (h)
Answers are plain numbers, in h.

Any idea what its half-life is? The compound is CNC(C)C1CCC(N)C(OC2C(N)CC(N)C(OC3OCC(C)(O)C(NC)C3O)C2O)O1 (stereo not shown) [gentamicin] 1.82
